Data origin, for the record: ChEMBL document CHEMBL4261622

molecular target: Peptidoglycan-N-acetylglucosamine deacetylase (Streptococcus pneumoniae (strain ATCC BAA-255 / R6)); test: Inhibition of Streptococcus pneumoniae Pgda expressed in Escherichia coli BL21 (DE3) cells transformed with pET28bSpPgdA232-431 plasmid using acetoxymethyl-4-methylumbelliferone as substrate measured at 5 min intervals over 60 mins in presence of CoCl2 by fluorescence assay
Sequence (Q8DP63 whole entry): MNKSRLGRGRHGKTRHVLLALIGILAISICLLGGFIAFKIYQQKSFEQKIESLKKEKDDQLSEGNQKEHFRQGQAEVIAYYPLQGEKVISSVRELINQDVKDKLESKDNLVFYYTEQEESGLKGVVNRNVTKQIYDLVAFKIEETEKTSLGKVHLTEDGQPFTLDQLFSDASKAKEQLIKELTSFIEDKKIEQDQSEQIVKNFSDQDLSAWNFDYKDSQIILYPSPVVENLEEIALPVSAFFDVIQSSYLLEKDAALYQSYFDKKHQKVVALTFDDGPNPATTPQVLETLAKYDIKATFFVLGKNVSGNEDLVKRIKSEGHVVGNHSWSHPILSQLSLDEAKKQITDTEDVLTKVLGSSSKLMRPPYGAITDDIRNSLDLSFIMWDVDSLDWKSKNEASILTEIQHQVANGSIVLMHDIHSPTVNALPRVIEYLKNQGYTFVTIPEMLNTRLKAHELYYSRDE
pIC50: −log10 of the molar value.
measurement-kind: pIC50

>  <chemical-smiles>
COP(=O)(O)C[C@H]1[C@H](OCc2ccccc2)O[C@H](COCc2ccccc2)[C@@H](O)[C@@H]1O

>  <measurement-kind>
pIC50

>  <test-value>
< 2.30

$$$$
>  <chemical-smiles>
NS(=O)(=O)C[C@H]1[C@H](OCc2ccccc2)O[C@H](CO)[C@@H](OCc2ccccc2)[C@@H]1O

>  <measurement-kind>
pIC50

>  <test-value>
< 2.30

$$$$
>  <chemical-smiles>
CC(=O)N[C@H]1[C@H](OCc2ccccc2)O[C@H](CO)[C@@H](O)[C@@H]1O

>  <measurement-kind>
pIC50

>  <test-value>
1.96

$$$$
>  <chemical-smiles>
CC(=O)N[C@H]1[C@H](OCc2ccccc2)O[C@H](CO)[C@@H](O)[C@@H]1N

>  <measurement-kind>
pIC50

>  <test-value>
< 2.00

$$$$
>  <chemical-smiles>
COP(=O)(O)C[C@H]1[C@H](OCc2ccccc2)O[C@H](CO)[C@@H](O)[C@@H]1O

>  <measurement-kind>
pIC50

>  <test-value>
2.31

$$$$
>  <chemical-smiles>
COP(=O)(O)C[C@H]1[C@H](OCc2ccccc2)O[C@H](CO)[C@@H](OCc2ccccc2)[C@@H]1O

>  <measurement-kind>
pIC50

>  <test-value>
< 2.30

$$$$
>  <chemical-smiles>
CC(=S)N[C@H]1[C@H](OCc2ccccc2)O[C@H](CO)[C@@H](O)[C@@H]1O

>  <measurement-kind>
pIC50

>  <test-value>
< 2.00

$$$$
>  <chemical-smiles>
NS(=O)(=O)C[C@H]1[C@H](OCc2ccccc2)O[C@H](CO)[C@@H](O)[C@@H]1O

>  <measurement-kind>
pIC50

>  <test-value>
< 2.00

$$$$
>  <chemical-smiles>
CC(=O)N[C@H]1[C@H](OCc2ccccc2)O[C@H](CO)[C@@H](O)[C@@H]1N=[N+]=[N-]

>  <measurement-kind>
pIC50

>  <test-value>
< 2.30

$$$$

====

target: Poly-beta-1,6-N-acetyl-D-glucosamine N-deacetylase (Escherichia coli (strain K12)); experiment: Substrate activity at Escherichia coli PgaB at 5 mM in presence of CoCl2 or ZnCl2 by fluorescamine assay deacetylase assay
Calls of active or inactive are those of the source. The calls are words filed in the database; no cut-off is given here.
measurement-kind: Activity

>  <chemical-smiles>
CC(=O)N[C@H]1[C@H](OCc2ccccc2)O[C@H](CO)[C@@H](O)[C@@H]1N

>  <test-value>
inactive

$$$$
>  <chemical-smiles>
CC(=S)N[C@H]1[C@H](OCc2ccccc2)O[C@H](CO)[C@@H](O)[C@@H]1O

>  <test-value>
inactive

$$$$
>  <chemical-smiles>
CC(=O)N[C@H]1[C@H](OCc2ccccc2)O[C@H](CO)[C@@H](O)[C@@H]1S

>  <test-value>
inactive

$$$$
>  <chemical-smiles>
CC(=O)N[C@H]1[C@H](OCc2ccccc2)O[C@H](CO)[C@@H](O)[C@@H]1O

>  <test-value>
inactive

$$$$
